target: Sigma non-opioid intracellular receptor 1 (Homo sapiens); test: Displacement of [3H]-(+)-pentazocine from human sigma-1 receptor expressed in HEK293 membranes incubated for 120 mins by liquid scintillation counting method
Sequence (Q99720 whole entry): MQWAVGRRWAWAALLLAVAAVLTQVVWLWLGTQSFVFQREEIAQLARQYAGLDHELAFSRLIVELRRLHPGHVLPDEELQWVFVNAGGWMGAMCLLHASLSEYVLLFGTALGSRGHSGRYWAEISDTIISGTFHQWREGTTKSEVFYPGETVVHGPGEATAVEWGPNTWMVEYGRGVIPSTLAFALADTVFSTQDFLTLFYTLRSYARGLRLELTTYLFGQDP
pKi: −log10 of the molar value.
The reader will find reported pKi values listed item by item below.
valueKind: pKi

INSERT INTO measurements (compound, relationsign, number) VALUES
  ('O=C1C(CO)OC2(CCN(CCc3ccccc3)CC2)CN1c1ccccc1 (stereo unspecified)', '=', 6.68),
  ('CC1(C)OC2(CCN(CCc3ccccc3)CC2)CN(c2ccccc2)C1=O', '=', 7.89),
  ('O=C1N(c2ccccc2)CC2(CCN(CCc3ccccc3)CC2)OC12CC2', '=', 8.05),
  ('CC1OC2(CCN(CCc3ccccc3)CC2)CN(c2ncccc2F)C1=O (stereo unspecified)', '=', 7.41),
  ('CC1OC2(CCN(CCc3ccccc3)CC2)CN(c2ncccc2C(F)(F)F)C1=O (stereo unspecified)', '=', 7.27),
  ('CC(C)C1OC2(CCN(CCc3ccccc3)CC2)CN(c2ccccc2)C1=O (stereo unspecified)', '=', 8.00),
  ('CC1OC2(CCN(CCc3ccccc3)CC2)CN(c2ccccn2)C1=O (stereo unspecified)', '=', 7.89),
  ('CC1OC2(CCN(CCc3ccccc3)CC2)CN(c2ccncc2)C1=O (stereo unspecified)', '=', 7.06),
  ('COc1ccc(N2CC3(CCN(CCc4ccccc4)CC3)OC(C)C2=O)cc1 (stereo unspecified)', '=', 7.85),
  ('CC1OC2(CCN(CCc3ccccc3)CC2)CN(c2ccccc2)C1=O (racemic)', '=', 8.22),
  ('C[C@@H]1OC2(CCN(CCc3ccccc3)CC2)CN(c2ccccc2)C1=O', '=', 7.85),
  ('CC1OC2(CCN(CCc3ccccc3)CC2)CN(c2cccc(O)c2)C1=O (stereo unspecified)', '=', 7.26),
  ('CC1OC2(CCN(CCc3ccccc3)CC2)CN(c2ccccc2F)C1=O (stereo unspecified)', '=', 7.96),
  ('COCC1OC2(CCN(CCc3ccccc3)CC2)CN(c2ccccc2)C1=O (stereo unspecified)', '=', 7.49),
  ('C[C@H]1OC2(CCN(CCc3ccccc3)CC2)CN(c2ccccc2)C1=O', '=', 7.68),
  ('COc1cccc(N2CC3(CCN(CCc4ccccc4)CC3)OC(C)C2=O)c1 (stereo unspecified)', '=', 7.82),
  ('CC1OC2(CCN(CCc3ccccc3)CC2)CN(c2ccc(O)cc2)C1=O (stereo unspecified)', '=', 6.91),
  ('CC1OC2(CCN(CCc3cccc(F)c3)CC2)CN(c2ccccc2)C1=O (stereo unspecified)', '=', 8.10),
  ('COc1ccccc1N1CC2(CCN(CCc3ccccc3)CC2)OC(C)C1=O (stereo unspecified)', '=', 7.42),
  ('CC1OC2(CCN(CCc3ccccc3)CC2)CN(c2ccc(C(F)(F)F)nc2)C1=O (stereo unspecified)', '=', 8.05),
  ('O=C1COC2(CCN(CCc3ccccc3)C2)CN1c1ccccc1 (stereo unspecified)', '=', 7.28),
  ('CC(=O)Nc1cccc(CCN2CCC3(CC2)CN(c2ccccc2)C(=O)C(C)O3)c1 (racemic)', '=', 6.83),
  ('CC1OC2(CCN(CCc3ccccc3)CC2)CN(c2cccnc2C(F)(F)F)C1=O (stereo unspecified)', '=', 7.32),
  ('CC1OC2(CCN(CCc3cccc(C#N)c3)CC2)CN(c2ccccc2)C1=O (stereo unspecified)', '=', 7.55),
  ('CC1OC2(CCN(CCc3ccccc3)CC2)CN(c2cncc(F)c2)C1=O (stereo unspecified)', '=', 8.52),
  ('O=C(O)CC1OC2(CCN(CCc3ccccc3)CC2)CN(c2ccccc2)C1=O (stereo unspecified)', '<', 6.00),
  ('CC1OC2(CCN(CCc3ccccn3)CC2)CN(c2ccccc2)C1=O (stereo unspecified)', '=', 7.28),
  ('CC1OC2(CCN(CCc3ccccc3)CC2)CN(c2ccccc2Cl)C1=O (stereo unspecified)', '=', 8.10),
  ('CCC1OC2(CCN(CCc3ccccc3)CC2)CN(c2ccccc2)C1=O (stereo unspecified)', '=', 8.22),
  ('CC1OC2(CCN(CCc3ccccc3)CC2)CN(c2cccc(C(F)(F)F)n2)C1=O (stereo unspecified)', '=', 8.10),
  ('CC1OC2(CCN(CCc3ccccc3)CC2)CN(c2cccnc2)C1=O (stereo unspecified)', '=', 7.17);
